The reported numbers originate from PubChem BioAssay AID2060491.

Tested on: 857933-349-R-J2-PDC complex spheroids, viability
Experiment: Anticancer human tumor 857933-349-R-J2-PDC patient-derived colon adenocarcinoma cell line growth inhibition [GQUAD]; active means viability on the fitted dose curve at most 10% of control; inactive means the rest
Conditions: second compound 3.16 µM; first compound 0.00999 µM
From the text: DNA G-quadruplex Stabilizer Agents in Combinations in Complex Spheroids A high-throughput screen of multi-cell type tumor spheroids was designed to identify active combinations of DNA G-quadruplex stabilizer agents and targeted small molecules. […] Compounds. […] If the clinical Cmax for an agent had not been determined, the highest concentration tested was 10 microM. […]
Valid outcomes are listed here; reply with one: YES = active, NO = inactive

Some solved cases for reference:
Cc1[nH]c2ccccc2c1CCNCc1ccc(/C=C/C(=O)NO)cc1 + Cc1[nH]c2ccc(F)cc2c1-c1nc2c3cccnc3c3ncccc3c2[nH]1 :: NO
Cn1ncnc1[C@H]1c2n[nH]c(=O)c3cc(F)cc(c23)N[C@@H]1c1ccc(F)cc1 + CN(C)c1ccc(Nc2c3ccc(NC(=O)CCN4CCCC4)cc3nc3cc(NC(=O)CCN4CCCC4)ccc23)cc1 :: NO

Pending compound:
input: What was the test verdict on CCc1c2c(nc3ccc(O)cc13)-c1cc3c(c(=O)n1C2)COC(=O)[C@]3(O)CC + Cc1cnc(CNC(=O)c2c(=O)c3ccc(N4CCCN(C)CC4)nc3n3c2sc2ccccc23)cn1 ?
output: YES

---

test system: 857933-349-R-J2-PDC complex spheroids, viability; test: Anticancer human tumor 857933-349-R-J2-PDC cell line growth inhibition [GQUAD]; details: second compound 0.0316 µM; first compound 0.316 µM; active means viability on the fitted dose curve at most 10% of control; inactive means the rest;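 further: spheroids exposed to compounds for one week before readout; percent viability relative to vehicle DMSO wells taken as 100%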
Thanks in advance; please answer with one of these: TRUE (active), FALSE (inactive)

O=C(NO)c1cnc(N2CCN(S(=O)(=O)c3ccc4ccccc4c3)CC2)nc1 + CN(C)c1ccc(Nc2c3ccc(NC(=O)CCN4CCCC4)cc3nc3cc(NC(=O)CCN4CCCC4)ccc23)cc1 :: FALSE
COc1cccc2c1C(=O)c1c(O)c3c(c(O)c1C2=O)CC(O)(C(=O)CO)CC3OC1CC(N)C(O)C(C)O1 (stereo not drawn) + Cc1[nH]c2ccc(F)cc2c1-c1nc2c3cccnc3c3ncccc3c2[nH]1 :: FALSE
CCc1c2c(nc3ccc(O)cc13)-c1cc3c(c(=O)n1C2)COC(=O)[C@]3(O)CC + Cc1cnc(CNC(=O)c2c(=O)c3ccc(N4CCCN(C)CC4)nc3n3c2sc2ccccc23)cn1 :: TRUE
CC1COCCN1c1cc(C2(S(C)(=N)=O)CC2)nc(-c2ccnc3[nH]ccc23)n1 (stereo not drawn) + CN(C)c1ccc(Nc2c3ccc(NC(=O)CCN4CCCC4)cc3nc3cc(NC(=O)CCN4CCCC4)ccc23)cc1 :: FALSE
C=CCn1c(=O)c2cnc(Nc3ccc(N4CCN(C)CC4)cc3)nc2n1-c1cccc(C(C)(C)O)n1 + Cc1[nH]c2ccc(F)cc2c1-c1nc2c3cccnc3c3ncccc3c2[nH]1 :: FALSE
C=CC(=O)N1CCN(c2nc(=O)n(-c3c(C)ccnc3C(C)C)c3nc(-c4c(O)cccc4F)c(F)cc23)C(C)C1 (stereo not drawn) + Cc1cnc(CNC(=O)c2c(=O)c3ccc(N4CCCN(C)CC4)nc3n3c2sc2ccccc23)cn1 :: FALSE
CC(C)(O)C1CCC(Nc2ccc3ncc(-c4cccc(C(F)(F)F)c4)n3n2)CC1 (stereo not drawn) + Cc1cnc(CNC(=O)c2c(=O)c3ccc(N4CCCN(C)CC4)nc3n3c2sc2ccccc23)cn1 :: FALSE
Cc1cccc(N(C)C(=O)C2C(O)CCN2c2nc(C)cc(C(F)(F)F)c2C#N)c1 (stereo not drawn) + Cc1[nH]c2ccc(F)cc2c1-c1nc2c3cccnc3c3ncccc3c2[nH]1 :: FALSE

input: Please state the recorded outcome for this molecule: CC(C)n1c(=O)n(C)c2cnc3cc(F)c(-c4ccc(OCCCN5CCCCC5)nc4)cc3c21 + Cc1cnc(CNC(=O)c2c(=O)c3ccc(N4CCCN(C)CC4)nc3n3c2sc2ccccc23)cn1
output: FALSE

input: Record request — test call for COc1ccc([C@@H](O)c2cc(-c3ncnc4cc(N5CCOCC5)ccc34)c(F)cc2Cl)nn1 + Cc1cnc(CNC(=O)c2c(=O)c3ccc(N4CCCN(C)CC4)nc3n3c2sc2ccccc23)cn1
output: FALSE

input: Kindly provide the recorded test outcome for the following molecule: COc1cccc2c1C(=O)c1c(O)c3c(c(O)c1C2=O)CC(O)(C(=O)CO)CC3OC1CC(N)C(O)C(C)O1 (stereo not drawn) + Cc1cnc(CNC(=O)c2c(=O)c3ccc(N4CCCN(C)CC4)nc3n3c2sc2ccccc23)cn1
output: FALSE

input: In this assay, the call recorded for CCCS(=O)(=O)Nc1ccc(F)c(C(=O)c2c[nH]c3ncc(-c4ccc(Cl)cc4)cc23)c1F + Cc1cnc(CNC(=O)c2c(=O)c3ccc(N4CCCN(C)CC4)nc3n3c2sc2ccccc23)cn1 was what?
output: FALSE

---

tested on: 857933-349-R-J2-PDC complex spheroids, viability; assay: Anticancer human tumor 857933-349-R-J2-PDC cell line growth inhibition [GQUAD]; settings: second compound 1 µM; first compound 1 µM; stronger effect = lower value;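 further: spheroids exposed to compounds for one week before readout; percent viability relative to vehicle DMSO wells taken as 100%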
measurement-label: viability, T/C (%)
Use % as the unit, but write only the number.

Previously resolved entries follow.
Cc1cccc(N(C)C(=O)C2C(O)CCN2c2nc(C)cc(C(F)(F)F)c2C#N)c1 (stereo not given) + Cc1cnc(CNC(=O)c2c(=O)c3ccc(N4CCCN(C)CC4)nc3n3c2sc2ccccc23)cn1 :: 4.02
Cc1cccc(N(C)C(=O)C2C(O)CCN2c2nc(C)cc(C(F)(F)F)c2C#N)c1 (stereo not given) + Cc1[nH]c2ccc(F)cc2c1-c1nc2c3cccnc3c3ncccc3c2[nH]1 :: 103
CC1COCCN1c1cc(C2(S(C)(=N)=O)CC2)nc(-c2ccnc3[nH]ccc23)n1 (stereo not given) + Cc1cnc(CNC(=O)c2c(=O)c3ccc(N4CCCN(C)CC4)nc3n3c2sc2ccccc23)cn1 :: 3.48
COc1ncnc(C2CC2)c1-c1ncc2cnn(Cc3ccc(-c4nc(C(F)(F)F)cn4C(C)C)cc3)c2n1 + Cc1cnc(CNC(=O)c2c(=O)c3ccc(N4CCCN(C)CC4)nc3n3c2sc2ccccc23)cn1 :: 3.85

input: Using known records, supply viability, T/C for CC(C)n1c(=O)n(C)c2cnc3cc(F)c(-c4ccc(OCCCN5CCCCC5)nc4)cc3c21 + Cc1[nH]c2ccc(F)cc2c1-c1nc2c3cccnc3c3ncccc3c2[nH]1
output: 107

---

test system: 857933-349-R-J2-PDC complex spheroids, viability; test: Anticancer human tumor 857933-349-R-J2-PDC cell line growth inhibition [GQUAD]; settings: second compound 0.316 µM; first compound 0.316 µM; stronger effect = lower value;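 further: spheroids exposed to compounds for one week before readout; percent viability relative to vehicle DMSO wells taken as 100%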
measurement-label: viability, T/C (%)
Give the value in % but do not write % after it.

Some compounds with recorded viability, T/C:
CC(C)n1c(=O)n(C)c2cnc3cc(F)c(-c4ccc(OCCCN5CCCCC5)nc4)cc3c21 + CN(C)c1ccc(Nc2c3ccc(NC(=O)CCN4CCCC4)cc3nc3cc(NC(=O)CCN4CCCC4)ccc23)cc1 :: 104
O=C(NO)c1cnc(N2CCN(S(=O)(=O)c3ccc4ccccc4c3)CC2)nc1 + CN(C)c1ccc(Nc2c3ccc(NC(=O)CCN4CCCC4)cc3nc3cc(NC(=O)CCN4CCCC4)ccc23)cc1 :: 93
COc1cc(C2c3cc4c(cc3C(OC3OC5COC(C)OC5C(O)C3O)C3COC(=O)C23)OCO4)cc(OC)c1O (stereo unspecified) + Cc1cnc(CNC(=O)c2c(=O)c3ccc(N4CCCN(C)CC4)nc3n3c2sc2ccccc23)cn1 :: 24.8
CC(C)n1c(=O)n(C)c2cnc3cc(F)c(-c4ccc(OCCCN5CCCCC5)nc4)cc3c21 + Cc1cnc(CNC(=O)c2c(=O)c3ccc(N4CCCN(C)CC4)nc3n3c2sc2ccccc23)cn1 :: 33
COc1cccc2c1C(=O)c1c(O)c3c(c(O)c1C2=O)CC(O)(C(=O)CO)CC3OC1CC(N)C(O)C(C)O1 (stereo unspecified) + Cc1[nH]c2ccc(F)cc2c1-c1nc2c3cccnc3c3ncccc3c2[nH]1 :: 56.4
CC1COCCN1c1cc(C2(S(C)(=N)=O)CC2)nc(-c2ccnc3[nH]ccc23)n1 (stereo unspecified) + Cc1[nH]c2ccc(F)cc2c1-c1nc2c3cccnc3c3ncccc3c2[nH]1 :: 90.2
C#Cc1c(F)ccc2cc(O)cc(-c3ncc4c(N5CC6CCC(C5)N6)nc(OCC56CCCN5CC(F)C6)nc4c3F)c12 (stereo unspecified) + Cc1cnc(CNC(=O)c2c(=O)c3ccc(N4CCCN(C)CC4)nc3n3c2sc2ccccc23)cn1 :: 22.4
Nc1ccn(C2OC(CO)C(O)C2(F)F)c(=O)n1 (stereo unspecified) + CN(C)c1ccc(Nc2c3ccc(NC(=O)CCN4CCCC4)cc3nc3cc(NC(=O)CCN4CCCC4)ccc23)cc1 :: 57

input: Indicate the recorded viability, T/C value for this compound: COc1ncnc(C2CC2)c1-c1ncc2cnn(Cc3ccc(-c4nc(C(F)(F)F)cn4C(C)C)cc3)c2n1 + CN(C)c1ccc(Nc2c3ccc(NC(=O)CCN4CCCC4)cc3nc3cc(NC(=O)CCN4CCCC4)ccc23)cc1
output: 97.3

input: Name the recorded viability, T/C of the compound listed here: COc1cc(C2c3cc4c(cc3C(OC3OC5COC(C)OC5C(O)C3O)C3COC(=O)C23)OCO4)cc(OC)c1O (stereo unspecified) + Cc1[nH]c2ccc(F)cc2c1-c1nc2c3cccnc3c3ncccc3c2[nH]1
output: 55.9

input: Report viability, T/C, nothing else, for this compound: Cc1[nH]c2ccccc2c1CCNCc1ccc(/C=C/C(=O)NO)cc1 + CN(C)c1ccc(Nc2c3ccc(NC(=O)CCN4CCCC4)cc3nc3cc(NC(=O)CCN4CCCC4)ccc23)cc1
output: 60.5
